- target_entity: Human PARP-1 enzyme (Homo sapiens, UniProt P09874)
- Construct: purchased Trevigen
- Sequence (P09874 whole entry): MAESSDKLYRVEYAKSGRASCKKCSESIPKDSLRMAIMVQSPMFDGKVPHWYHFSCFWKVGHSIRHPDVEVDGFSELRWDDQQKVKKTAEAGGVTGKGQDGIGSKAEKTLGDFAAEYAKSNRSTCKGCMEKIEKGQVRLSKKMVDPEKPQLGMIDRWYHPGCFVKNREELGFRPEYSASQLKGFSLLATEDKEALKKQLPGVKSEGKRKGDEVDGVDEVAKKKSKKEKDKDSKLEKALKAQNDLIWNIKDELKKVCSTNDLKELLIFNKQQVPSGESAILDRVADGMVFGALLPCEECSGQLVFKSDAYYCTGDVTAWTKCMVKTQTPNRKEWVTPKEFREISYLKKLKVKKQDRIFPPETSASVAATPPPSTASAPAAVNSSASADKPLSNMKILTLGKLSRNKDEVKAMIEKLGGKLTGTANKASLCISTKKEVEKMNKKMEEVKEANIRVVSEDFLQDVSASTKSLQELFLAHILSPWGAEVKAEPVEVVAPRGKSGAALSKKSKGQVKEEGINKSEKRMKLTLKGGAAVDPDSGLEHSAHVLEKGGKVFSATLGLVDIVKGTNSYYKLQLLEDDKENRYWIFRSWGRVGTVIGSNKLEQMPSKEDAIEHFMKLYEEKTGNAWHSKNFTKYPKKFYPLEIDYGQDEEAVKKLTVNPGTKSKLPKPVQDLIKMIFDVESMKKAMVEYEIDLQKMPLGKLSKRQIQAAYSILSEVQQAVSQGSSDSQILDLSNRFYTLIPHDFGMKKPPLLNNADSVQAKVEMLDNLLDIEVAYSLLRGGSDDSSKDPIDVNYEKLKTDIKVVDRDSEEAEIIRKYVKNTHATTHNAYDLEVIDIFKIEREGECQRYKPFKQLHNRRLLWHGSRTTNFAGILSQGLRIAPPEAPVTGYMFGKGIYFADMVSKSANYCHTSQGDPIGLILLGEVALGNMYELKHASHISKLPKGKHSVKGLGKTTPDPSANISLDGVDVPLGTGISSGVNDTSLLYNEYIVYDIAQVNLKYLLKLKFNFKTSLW
- procedure_text: In vitro Scintillation Proximity Assay (SPA) for PARP-1 inhibitory activity
- Assay type: biochemical
- test_conditions: read-out: in vitro SPA assay PARP-1 pIC50 (converted)
quantity_measured: IC50 (nM)

a: CCc1cc2ccc([C@](C)(C#N)C[C@H]3CCc4ccccc4O3)cc2[nH]c1=O (single isomer, unassigned) [Compound 396]
b: CCc1cc2ccc(C(C)(C#N)Cc3nc(C#N)cc(OC)n3)cc2[nH]c1=O (single isomer, unassigned) [Compound 203]
c: CCc1cc2ccc(C(C#N)(Cc3ccccc3)C3CC3)cc2[nH]c1=O (stereo not drawn) [Compound 29]
q: Order the records so the highest IC50 appears first and the lowest last. Labels, ranked as asked.
a: c, a, b
(c: 631 nM, a: 100 nM, b: 50.1 nM)

A: CCc1cc2ccc(C(C#N)(CC)Cc3cccc(OC)c3)cc2[nH]c1=O (stereo not drawn) [Compound 287]
B: Cc1cc2ccc(C(C)(C#N)Cc3cccc(OCC4CCOCC4)c3)cc2[nH]c1=O (stereo not drawn) [Compound 261]
q: Between the entries labelled A and B , which has a larger IC50 value on record? To answer, give the label that identifies your chosen option.
a: B
(B: 100 nM, A: 39.8 nM)

Cited source: patent US8778966B2
